target.or.system: T1, human Siglec-3 (CD33) on cells (human, UniProt P20138 18-364)
T1 construct: whole, on cells; also called human endogenous or exogenous Siglec-3
T1 sequence (P20138 18-364): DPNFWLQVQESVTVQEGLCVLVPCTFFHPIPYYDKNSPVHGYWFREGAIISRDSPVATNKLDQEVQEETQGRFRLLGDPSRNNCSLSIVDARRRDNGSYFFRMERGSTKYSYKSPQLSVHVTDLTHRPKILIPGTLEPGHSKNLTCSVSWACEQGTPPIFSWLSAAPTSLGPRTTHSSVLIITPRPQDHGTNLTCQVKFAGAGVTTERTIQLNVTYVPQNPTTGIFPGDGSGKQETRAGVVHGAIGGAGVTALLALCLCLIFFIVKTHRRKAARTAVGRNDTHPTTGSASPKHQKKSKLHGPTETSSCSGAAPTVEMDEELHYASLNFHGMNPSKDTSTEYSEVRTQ
protocol.text: flow cytometry on moDCs (data not shown)
measure.name: binding result

{"binder": "anti-Siglec-3 antibody H3-7G reformatted into human IgG1 or IgG4 (antibody, V domains shown, also called 1H3-7G; 4H3-7G) VH: VQLVESGGGLVQPGGSLRLSCAASGFTIDDGFIHWVRQAPGKGLEWVAGIGPYGGYTYYADSVKGRFTISADTSKNTAYLQMNSLRAEDTAVYYCARFRDDKPQMMDYWGQGTLVTVSS VL: DIQMTQSPSSLSASVGDRVTITCRASQDVYGYVAWYQQKPGKAPKLLISYTPGLYSGVPSRFSGSGSGTDFTLTISSLQPEDFATYYCQQYYDFPITFGQGTKVEIKR", "measure.name": "binding result", "measured": "binds"}
{"binder": "anti-Siglec-3 antibody H3-10F reformatted into human IgG1 or IgG4 (antibody, V domains shown, also called 1H3-10F; 4H3-10F) VH: VQLVESGGGLVQPGGSLRLSCAASGFTIDDGFIHWVRQAPGKGLEWVAGIGPYGGYTYYADSVKGRFTISADTSKNTAYLQMNSLRAEDTAVYYCARFATHDQPLMDYWGQGTLVTVSS VL: DIQMTQSPSSLSASVGDRVTITCRASQDVYGYVAWYQQKPGKAPKLLISYTPGLYSGVPSRFSGSGSGTDFTLTISSLQPEDFATYYCQQYYDFPITFGQGTKVEIKR", "measure.name": "binding result", "measured": "binds"}

Source listed as patent US20250136682A1.
